Numbers sourced from PubChem BioAssay (NCI).

TGI by entry:
# Test system: OVCAR-4 ovarian
# Experimental protocol: NCI tumour cell line growth inhibition, 48 h
Readout: TGI

                                   compound  readout  measured_result
0  C/C(=N\O)C(CN(C)C)C(c1ccccc1)c1c(O)c2ccccc2oc1=O (centres undefined)      TGI         > 100 µM
1  CC(C)(C)OC(=O)N(CCCn1c2c(c3ccccc3c1=O)C(=O)c1ccccc1-2)CCN(CCCn1c2c(c3ccccc3c1=O)C(=O)c1ccccc1-2)C(=O)OC(C)(C)C      TGI          > 50 µM
2          C[n+]1ccccc1/C=C/c1ccc2c(c1)OCO2      TGI          > 10 µM
3  O=C(O)c1cc2c3c(c1)[C@H]1C=CC[C@H]1CN3CC1CC=CC21 (some centres undefined)      TGI         > 100 µM
4           CC(=O)N1C(=O)C(=O)c2cc(Cl)ccc21      TGI         > 100 µM
5  CCOC(=O)c1c(N2CCOCC2)[nH]c(=O)c(C(c2ccc(N(C)C)cc2)c2c(O)c(C(=O)OCC)c(N3CCOCC3)[nH]c2=O)c1O      TGI         > 100 µM
6  O=C1c2ccccc2C(=O)N1C/C=N/NS(=O)(=O)c1ccc(Cl)cc1      TGI         > 100 µM
7    CC(C)[C@H](COC(C)(C)C)N=CN1CSc2ccccc21      TGI         > 100 µM
8  OC(CCN1CCN(CCOC(c2ccc(F)cc2)c2ccc(F)cc2)CC1)c1ccccc1 (centres undefined)      TGI          39.4 µM

---

# Test system: SNB-78 CNS
# Experimental protocol: NCI tumour cell line growth inhibition, 48 h
Readout: TGI

                                    molecule      system  measured_result
 0                CCOc1ccccc1N=C(NC(=O)CC)SC  SNB-78 CNS          > 10 µM
 1         C/C(CC(=O)Nc1ccc(C)cc1)=N\NC(N)=S  SNB-78 CNS         > 100 µM
 2                 CC1=CC(=O)c2cccc(O)c2C1=O  SNB-78 CNS        > 62.4 µM
 3  CN(C)CC1CCC(CN(C)C)C1=NO (stereo not given)  SNB-78 CNS         > 100 µM
 4  COc1cc([C@@H]2c3cc4c(cc3[C@@H](NC(=O)c3ccc(C(C)=O)cc3)C3COC(=O)[C@@H]32)OCO4)cc(OC)c1O (stereo not given in full)  SNB-78 CNS            85 µM
 5           CC(=O)N1C(=O)C(=O)c2cc(Cl)ccc21  SNB-78 CNS         > 100 µM
 6                        CCCCCCc1ccc(O)cc1O  SNB-78 CNS         > 100 µM
 7  CCC(=O)[O-].CCC(=O)[O-].N.N.N.N.[Co+3].[O-][Cl+3]([O-])([O-])[O-]  SNB-78 CNS         > 100 µM
 8  CN1NC(c2ccccc2)=C(C#N)C(=O)CC1c1ccccc1Cl (stereo not given)  SNB-78 CNS         > 100 µM
 9  C#Cc1cccc(N2C(=O)CC(=P(c3ccccc3)(c3ccccc3)c3ccccc3)C2=O)c1  SNB-78 CNS         > 100 µM
10  COc1ccc2c3c([nH]c2c1[N+](=O)[O-])C(C)N(C(=O)/C=C/c1ccccc1)CC3 (stereo not given)  SNB-78 CNS         > 100 µM
11  [O-]c1c(-c2ccccc2)[se]c(-c2ccccc2)[n+]1-c1ccccc1  SNB-78 CNS            14 µM
12  Cc1cc(Cl)ccc1N1C(=O)C(=O)C(c2nc3ccccc3s2)/C(=N\NC(=O)c2ccccc2O)C1=O (stereo not given)  SNB-78 CNS         > 100 µM
13  CN(C)CCNc1ccc2nnn3c4ccc(Cl)cc4c(=O)c1c23  SNB-78 CNS          34.9 µM
14  CCCNCC(O)/C=C/[Si](C)(C)C (stereo not given) (tested in a mixture with another compound)  SNB-78 CNS         > 100 µM
15    CC(C)[C@H](COC(C)(C)C)N=CN1CSc2ccccc21  SNB-78 CNS          81.5 µM
16  CC(C)c1cccc2sc(NC(=O)C(=O)CC(=O)c3ccc(F)cc3)nc12  SNB-78 CNS         > 100 µM
17  CCC1(c2ccncc2)CCC(=O)NC1=O (stereo not given)  SNB-78 CNS         > 100 µM
18  NCC(=O)OCN1C(=O)C2C3C=CC(C2C1=O)C1C2C(=O)N(COC(=O)CN)C(=O)C2C31 (stereo not given)  SNB-78 CNS         > 100 µM
19  CC(=O)C1CC2(c3ccccc3)C(=O)c3ccccc3N2O1 (stereo not given)  SNB-78 CNS         > 100 µM

---

# Test system: M14 melanoma
# Experimental protocol: NCI tumour cell line growth inhibition, 48 h
TGI values for the molecules below.

Molecule	TGI
Nc1nc(Cl)cc(NCCCCO)n1	> 10 µM
CCCCCCCCCCSS(=O)(=O)c1ccc(C)cc1	25 µM
CNC1=C(Br)C(=O)C2=C(C1=O)C1C3=C(C(=O)C=CC3=O)C2c2ccccc21 (configuration not stated)	11.5 µM
CCCCCCCCOC(=O)c1cc(O)c(O)c(O)c1	9.19 µM
O=C(O/N=C1/CCC/C1=C\c1ccccc1)c1ccc(Cl)cc1	> 100 µM
C=CC1(C)/C(=N\O)C(C)(CC)C(=O)N1O (configuration not stated)	> 100 µM
COC(=O)c1c(C)cccc1C1CN=NC12Cc1c(C)cccc1C2=O (configuration not stated)	> 100 µM
C/C(=N\O)C(CN(C)C)C(c1ccccc1)c1c(O)c2ccccc2oc1=O (configuration not stated)	> 100 µM
N#C/C(=C\N1CCNC1=S)C(=O)c1ccc2ccccc2c1	> 100 µM
Cn1cc(C=C(C#N)C#N)c(=O)n(C)c1=O	> 100 µM
CN[C@@H]1[C@H](O)[C@H](NC)[C@H]2O[C@@]3(O)C(=O)C[C@@H](C)O[C@H]3O[C@@H]2[C@H]1O	> 100 µM
CP(=O)(CCSc1ccccc1)c1ccccc1 (configuration not stated)	> 100 µM
CN(C)CCCNC(=O)c1cc(NC(=O)CCCn2c3ccccc3c3ccccc32)cn1C	> 100 µM
COC(=O)c1ccccc1C1CN=NC12Cc1c(C)c3c(c(C)c1C2=O)CCC3 (configuration not stated)	> 100 µM
COC(=O)[C@@H]1C[C@H]2[C@H](c3ccccc3Br)[C@@H](OC(C)=O)[C@@H](OCc3ccccc3)ON2O1	> 100 µM
O=C(CN1CCOCC1)NC1=Nc2ncccc2C(=O)NN1	> 10 µM
C=C(C)[C@@H]1CC[C@]2(c3ncc(C)o3)CC[C@]3(C)[C@H](CC[C@@H]4[C@@](C)(CCC#N)[C@H](C(=C)C)CC[C@]43C)[C@@H]12	24.2 µM
CCCC(=O)C(CC)/C(CCC(=O)N(Cc1ccccc1)Cc1ccccc1)=N/NC(=O)C[N+](C)(C)C (configuration not stated)	> 100 µM
COc1cccc2c1C(=O)c1c(O)c3c(c(O)c1C2=O)C[C@@](O)(C(=O)COC(=O)c1cccnc1)C[C@@H]3OC1CC(N)C(O)C(C)O1 (some centres not stated)	1.06 µM
COC(=O)C(=O)C(C(=O)C(=O)Nc1ccc([N+](=O)[O-])cc1C#N)c1nc2ccc([N+](=O)[O-])cc2[nH]c1=O (configuration not stated)	> 100 µM
O=C1c2ccccc2C(=O)N1C/C=N/NS(=O)(=O)c1ccc(Cl)cc1	> 100 µM
CN(C)c1ccc2c(SCC(=O)OCC(=O)[C@@]3(O)CC[C@H]4[C@@H]5CCC6=CC(=O)C=C[C@]6(C)[C@H]5C(=O)C[C@@]43C)c3ccc(N(C)C)cc3nc2c1	> 100 µM
COc1cc([N+](=O)[O-])c(S(=O)(=O)O)cc1-n1nc(-c2ccccc2)n[n+]1-c1cc(S(=O)(=O)[O-])c([N+](=O)[O-])cc1OC	> 100 µM
O=c1[nH]ncc2[nH]c3c(c12)CCCc1ccccc1-3	> 100 µM
CCCN(CCC)C(=O)Cc1c2n(c3ccccc13)CCCc1ccccc1-2	26.4 µM
O=S(O)CCCCSSCCCCS(=O)(O)=S	32.1 µM
COc1ccc(CCNC(=O)Cc2ccccc2CCO)cc1OC	> 100 µM
O=C1CC(CC(O)C(O)CO)CC(=O)N1 (configuration not stated)	> 100 µM
CC(=O)OCC1OC(Sc2nc(-c3ccc(C)cc3)c(C#N)c(=O)n2C2OC(COC(C)=O)C(OC(C)=O)C(OC(C)=O)C2OC(C)=O)C(OC(C)=O)C(OC(C)=O)C1OC(C)=O (configuration not stated)	> 100 µM
CC1=C(CC/C(C)=C/CCC2(C)CCC([C@H](C)C(=O)O)OO2)C(C)(C)CCC1 (some centres not stated) (tested in a mixture with another compound)	> 100 µM
CCCCCn1ncc(-c2c(O)c(O)cc3c(O)c(-c4c(C)cc5c(-c6cnn(CCCCC)n6)c(O)c(O)cc5c4O)c(C)cc23)n1	2.89 µM
COc1ccc(/C=C2/CCOC2=O)cc1	> 100 µM
O=C(O)C1(C(=O)O)CCN(S(=O)(=O)c2ccccc2)CC1	> 100 µM
CN1C(=O)c2cccc3c([N+](=O)[O-])ccc(c23)C1=O	23.1 µM
C/C=C1/CN2CC[C@@H]3c4ccccc4N4[C@H](C(=O)OC)[C@H]1C[C@H]2[C@]34/C=C/C1=COC[C@@H]2[C@H]1C[C@H]1c3c(c4ccccc4n3C)C[C@@H]2N1C	7.9 µM
CCc1nc2cc(/C=C/C(=O)NO)c(F)cc2c(=O)n1CCc1ccccc1	3.8 µM
CC1(Br)C(=O)NC(=O)N([C@H]2C[C@H](O)[C@@H](CO)O2)C1N=[N+]=[N-] (some centres not stated)	> 100 µM
